EXPERIMENT DESCRIPTION: Human HepG2 cell viability assay in 384 well format
Type: toxicity, cell-based
Design: dose 125 nL, time 70.5 hour; concentration not given beside the values
DETAILS: HepG2 cells, read-out: Inhibition
Measured cytotoxicity at 70.5 h, listed per entry for reference.
VALUE KIND: cytotoxicity at 70.5 h (%)

Cc1cc(C)c2c(c1)C(NCc1nnc3n1CCC3)CCCO2 (stereo unspecified) ... -5.63
O=C(NCC1CC1)[C@@H]1C[C@@H]2CCN(Cc3ccccc3)C[C@H]2O1 ... -6.35
COc1ccc(-c2noc(C3CCS(=O)(=O)C3)n2)cc1OC (stereo unspecified) ... -10.7
CC(C)NC(=O)N1CC[C@@H]2[C@@H]1CC(=O)N2Cc1cccnc1 ... -13.6
CC(=O)NCCNC(=O)C1(Oc2cccnc2C)CCNCC1 ... -5.79
Cc1cc(C)n(CC2CCCN2C(=O)CCNc2ncccn2)n1 (stereo unspecified) ... -4.55

###

EXPERIMENT DESCRIPTION: Human HepG2 cell viability assay in 384 well format
Assay type: toxicity, cell-based
Set-up: dose 125 nL, time 70.5 hour; concentration not given beside the values
DETAILS: HepG2 cells, read-out: Inhibition
VALUE KIND: cytotoxicity at 70.5 h (%)

O=C(CNc1cc(-n2cnnn2)ccc1F)NCc1ccccc1 ... -118
CCN1CC(C(=O)N2CCc3cc(C(N)=O)n(C)c3C2)CC1=O (stereo unspecified) ... -2.91
CCN(CC)CCSc1nnc(N2CCN(c3ccccc3)CC2)s1 ... -2.44
O=C(CCN1CCCC1=O)NCc1cccnc1Oc1ccccc1 ... -3.36
CCN(Cc1noc(CC(C)C)n1)C[C@]1(O)CCCN2CCCC[C@@H]21 ... -11.7
NC(=O)C1CCN(C(=O)NCc2ccccc2Cn2cncn2)CC1 ... -3.83

###

EXPERIMENT DESCRIPTION: Human HepG2 cell viability assay in 384 well format
Format: toxicity, cell-based
Parameters: dose 125 nL, time 70.5 hour; concentration not given beside the values
DETAILS: HepG2 cells, read-out: Inhibition
VALUE KIND: cytotoxicity at 70.5 h (%)

NC(=O)c1ccc2c(c1)nc1n2CCN(Cc2ccccc2)C1 ... -15.9
CC(C(=O)NCc1cn2cc(Br)ccc2n1)S(C)(=O)=O (stereo unspecified) ... -5.34
CCn1cncc1CNC(=O)c1ccc(C2CCCN2C(=O)COC)s1 (stereo unspecified) ... -12
O=C(c1cscn1)N1CC[C@@H]2[C@@H]1CCN2C1CCOC1 (stereo partly specified) ... -1.49
Cc1cccc(CNC2CC(=O)N(CCc3cccc(Cl)c3)C2)n1 (stereo unspecified) ... -8.39
O=S(=O)(NCCCn1cncn1)c1ccc2c(c1)OCCO2 ... -3.62

###

Consider the following molecules and their measured cytotoxicity at 70.5 h readings.
EXPERIMENT DESCRIPTION: Human HepG2 cell viability assay in 384 well format
Type: toxicity, cell-based
Set-up: dose 125 nL, time 70.5 hour; concentration not given beside the values
DETAILS: HepG2 cells, read-out: Inhibition
VALUE KIND: cytotoxicity at 70.5 h (%)

Cc1cnn(CC2CCCN2C(=O)CCc2c(C)noc2C)c1 (stereo unspecified) ... 12.1
CCCc1nnc(NCCCn2nc(C)c(Cl)c2C)o1 ... -7.76
C1CC(CN2CCCCC2C2OCCO2)C1 (stereo unspecified) ... 3.56
CC(NC(=O)C1CN(c2ncnc3c2nnn3C)C1)c1ccccc1 (stereo unspecified) ... -16.6
CNC(=O)C(CC(C)C)NC(=O)c1cccc(-c2n[nH]c(C)n2)c1 (stereo unspecified) ... 0.903
Cc1cccnc1NC(=O)c1ccc(-n2ncc(C#N)c2N)cc1 ... -4.45

###

EXPERIMENT DESCRIPTION: Human HepG2 cell viability assay in 384 well format
Type: toxicity, cell-based
Design: dose 125 nL, time 70.5 hour; concentration not given beside the values
DETAILS: HepG2 cells, read-out: Inhibition
VALUE KIND: cytotoxicity at 70.5 h (%)

CC(C)(C)c1n[nH]c(C2CN(C(=O)c3cnc[nH]3)CCO2)n1 (stereo unspecified) ... -7.66
CC(C)Cc1cc(C(=O)N2CCC(N3CCCC3)CC2)cc(O)n1 ... -12.3
CN(C)S(=O)(=O)N1CCC(C(O)c2ccc(Cl)cc2)CC1 (stereo unspecified) ... -10.4
CC(C)n1ccnc1C1CCCN(c2cncc(N(C)C)n2)C1 (stereo unspecified) ... 2.84
Oc1cccc(CN2C[C@H]3CC[C@@H]2CN(Cc2ccc(F)cc2)C3)c1 ... -1.41
Cc1cc(F)c(S(=O)(=O)Nc2ccn(CCCC#N)n2)cc1F ... -16

###

EXPERIMENT DESCRIPTION: Human HepG2 cell viability assay in 384 well format
Type: toxicity, cell-based
Design: dose 125 nL, time 70.5 hour; concentration not given beside the values
DETAILS: HepG2 cells, read-out: Inhibition
Listed below: cytotoxicity at 70.5 h values for each entry.
VALUE KIND: cytotoxicity at 70.5 h (%)

CNCC(=O)N1CC(c2cc(Nc3ncccn3)nc(C)n2)C1 ... -20.3
CC(NC1(CNS(C)(=O)=O)CCOCC1)c1ccccc1 (stereo unspecified) ... -8.35
O=C(CN1CCCCC1Cn1cccn1)NC1CCOCC1 (stereo unspecified) ... -6.42
Cc1nc(CN2CCCN(C(=O)C3(C#N)CCCCC3)CC2)cs1 ... -16.4
Cc1nc(-c2ccc(CC(=O)N3CCN(C(=O)C(C)C)CC3)cc2)cs1 ... -1.97
O=C(CNC(=O)C1CC1)Nc1c(F)cccc1Oc1ccccc1 ... -3.31

###

EXPERIMENT DESCRIPTION: Human HepG2 cell viability assay in 384 well format
Type: toxicity, cell-based
Design: dose 125 nL, time 70.5 hour; concentration not given beside the values
DETAILS: HepG2 cells, read-out: Inhibition
# cytotoxicity at 70.5 h listing for each entry below
VALUE KIND: cytotoxicity at 70.5 h (%)

COCCCNc1c(-c2ccccc2)c(=O)c1=O ... -8.63
Cc1cccc(CN2C(=O)CO[C@@H]3CN(C4CCOCC4)C[C@H]32)c1 ... 0.326
Cc1cccc(NS(=O)(=O)c2cc(C(=O)O)oc2C)c1Cl ... 1.03
CS(=O)(=O)N1CCO[C@@H]2CN(Cc3ccncc3)C[C@@H]2C1 ... -5.73
CCC[C@@H](NC(N)=O)C(=O)N1Cc2ccccc2-c2ccccc2C1 ... -2.69
CCN(C(=O)C1Cc2cc(Cl)ccc2O1)C1CC1 (stereo unspecified) ... -2.35

###

EXPERIMENT DESCRIPTION: Human HepG2 cell viability assay in 384 well format
Format: toxicity, cell-based
Design: dose 125 nL, time 70.5 hour; concentration not given beside the values
DETAILS: HepG2 cells, read-out: Inhibition
Examples of compounds with documented cytotoxicity at 70.5 h follow.
VALUE KIND: cytotoxicity at 70.5 h (%)

Cc1nc(COCc2cnc3n2CCN(C)C3C)cs1 (configuration not stated) ... -1.73
CCN(CC)C(CNS(=O)(=O)c1ccc(C(C)=O)cc1)c1ccco1 (configuration not stated) ... -3.55
O=C(Cn1nc2ccccc2n1)N1CCCC(O)(CN2CCCC2)C1 (configuration not stated) ... 13.9
Cc1nccc(N2CCC(=O)N(CC3CC3)C(C(C)C)C2)n1 (configuration not stated) ... -1.5
CC(C)[C@@H]1CN(Cc2ccsc2)C[C@H]1NS(=O)(=O)N(C)C ... 1.27
CCN1CCCC(O)(c2nc(C)c(CCOc3ccccc3F)s2)CC1 (configuration not stated) ... -8.35
CCc1cnc(CN(C)C(C)C(=O)N2CCc3ccccc3C2)s1 (configuration not stated) ... 0.736
CCOCCC1(C(=O)N2CCCC(c3ncc[nH]3)C2)CCCC1 (configuration not stated) ... -16.4
c1csc(N2CCN(Cc3nnnn3C3CC3)CC2)n1 ... 0.58
COc1ccc(CN(C)Cc2cccc(C#N)c2)c(OC)c1 ... -3.94
CSCCC(NC(=O)c1nc(SC)ncc1Cl)C(=O)O (configuration not stated) ... -0.19
Cc1nonc1CN(C)Cc1cnn(-c2ccc(Cl)cc2)c1 ... -3.48

###

Form field: cytotoxicity at 70.5 h (one value per entry).
EXPERIMENT DESCRIPTION: Human HepG2 cell viability assay in 384 well format
Assay type: toxicity, cell-based
Parameters: dose 125 nL, time 70.5 hour; concentration not given beside the values
DETAILS: HepG2 cells, read-out: Inhibition
VALUE KIND: cytotoxicity at 70.5 h

Cc1nn(C)c(C)c1-c1cncc(C2CCN(S(C)(=O)=O)CC2)n1 ... -19.6%
CS(=O)(=O)N1CCC(NC(=O)COc2cccc(Cl)c2)CC1 ... 1.43%
Cc1ccccc1N1CCCN(C(=O)CC2CN(C(C)C)CCO2)CC1 (stereo not drawn) ... 0.214%
O=C(c1ccc2c(c1)COC2)N1CCC(Nc2cccnn2)CC1 ... -1.47%
O=C(Nc1ccccc1OC(F)(F)F)C1CCS(=O)(=O)C1 (stereo not drawn) ... -9.01%
CC(C)CNC(=O)[C@H]1C[C@@H]2CN(C(=O)Nc3ccc(F)cc3)C[C@H]1O2 ... -26.4%
CN1CC2(CCN(C(=O)c3ccc(-n4cccn4)cc3Cl)C2)OC1=O (stereo not drawn) ... -2.7%
Cc1cc(C(=O)NC(C)C(=O)Nc2cc(F)ccc2C)nc(C)n1 (stereo not drawn) ... 5.43%
O=C(O)c1ccccc1-c1c(-c2ccccc2)ncn1CC1CCCO1 (stereo not drawn) ... 17.5%
O=S(=O)(c1cccs1)N1Cc2nc(CN3CCCCC3)oc2C1 ... -8.94%
O=S(=O)(N1CCCC1)N1CCc2sccc2C1 ... 0.675%
CN(CCSc1ccccc1)C(=O)C(c1cccnc1)N1CCOCC1 (stereo not drawn) ... 33.5%
O=S(=O)(NC1CCOC1)c1ccc(C(F)(F)F)nc1 (stereo not drawn) ... -2.28%
N#CC1(NC(=O)c2ccc(-c3nc(C4CC4)n[nH]3)cc2)CCSC1 (stereo not drawn) ... -18.6%
O=C1NCCCC12CCN(S(=O)(=O)N1CCOCC1)C2 (stereo not drawn) ... -6.49%
CNC(=O)CN1CC[C@H]2CN(C(=O)c3ccc(C)nc3)C[C@H]2C1 ... -1.44%
Cc1noc(C2CCCN(C(=O)c3cc(Cl)ccc3F)C2)n1 (stereo not drawn) ... -7.27%
CN(Cc1ccno1)c1nc(C2CCCC2)nc2c1cnn2C ... -2.09%
CC(C)CC(=O)N(C)CC(=O)Nc1ccc(Br)cn1 ... 0.489%
Cc1noc(C)c1CN1C[C@@H]2COC[C@@H](C(=O)N3CCCO3)[C@@H]2C1 ... 51.2%
CCCN(Cc1ccccc1O)S(=O)(=O)C(C)CC (stereo not drawn) ... -5.52%
COc1ccc(F)c(CNC2CCCc3nc(N(C)C)ncc32)c1 (stereo not drawn) ... -11.5%
O=C(CCc1ccccc1Br)NS(=O)(=O)c1ccc2c(c1)OCCO2 ... -1.54%
